The values you see were collected from the supplement of paper PMC6757056.

B1: library; a variant is named by its letters at N, in order (parent)
chain: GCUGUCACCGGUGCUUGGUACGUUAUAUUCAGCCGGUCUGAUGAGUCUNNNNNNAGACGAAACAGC

Variants of: B1
method-notes: normalized RNA/DNA level with ligand (relative to sTRSVctl = 100) (log10 (% of sTRSVctl)); HEK293T overexpressing SLC46A1; ligand concentration (+) RNA-Seq: 6 mM; higher = less ribozyme self-cleavage, higher mRNA level
condition-notes: with (6R,S)-folinic acid; ligand present: yes
reported-property: normalized RNA/DNA level with ligand (log10)
# output: bare number, no unit

The examples below pair each entry with its known result.
| mutation-list | observed-value |
| --- | --- |
| CCCGUC | 2.03 |
| UGUAGU | 2.06 |
| AACUAA | 1.96 |
| ACUCCC | 2.02 |
| UGUCCG | 1.99 |

q: Consider the variant shown here: "CCUUCC" What is its recorded normalized RNA/DNA level with ligand (log10)?
a: 2.01
